Recorded values, source patent US7943628B2.

# Target System: histamine H4 receptor (Homo sapiens)
# Construct: expressed in transfected cells; host or cells: CHO cells
# Sequence (Q9H3N8 whole entry): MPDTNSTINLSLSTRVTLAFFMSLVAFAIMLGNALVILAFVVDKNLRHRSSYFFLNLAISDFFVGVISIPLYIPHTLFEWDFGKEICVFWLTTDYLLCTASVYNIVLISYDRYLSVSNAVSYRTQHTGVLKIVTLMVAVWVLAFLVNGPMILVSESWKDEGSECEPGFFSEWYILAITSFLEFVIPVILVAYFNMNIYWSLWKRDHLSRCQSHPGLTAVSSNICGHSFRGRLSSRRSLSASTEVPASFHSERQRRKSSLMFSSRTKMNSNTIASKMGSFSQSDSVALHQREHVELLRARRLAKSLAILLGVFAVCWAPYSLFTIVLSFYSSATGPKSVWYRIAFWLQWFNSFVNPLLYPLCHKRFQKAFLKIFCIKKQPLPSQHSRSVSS
# Test Description: H4 binding, method 1 ([3H]-histamine filtration binding on CHO cell membranes)
# Measurement Parameters: H4 binding, method 1; Ki calculated from IC50 (Cheng-Prussoff)
I'd appreciate it if you marked entries 1 when Ki is lower than 30 nM and -1 when it is not.

input: Does this compound meet the criterion Ki < 30 nM? CN[C@@H]1CCN(c2cc(NCC(C)(C)C)ncn2)C1 [Example 183]
output: 1

----------
# Target System: histamine H4 receptor (Homo sapiens)
# Construct: expressed in transfected cells; host or cells: CHO cells
# Test Description: H4 binding, method 2 ([3H]-histamine binding with Ysi WGA beads on CHO cell membranes)
# Measurement Parameters: H4 binding, method 2; Ki calculated from IC50 (Cheng-Prussoff); read-out: Method 2 (Ki (nM))
Criterion: Ki strictly less than 100 nM. Met: fulfilled. Not met: not fulfilled.

# count of solved cases: 3
[
  {
    "Molecule": "CNC1CN(c2cc(NCc3cccc(Cl)c3)nc(N)n2)C1",
    "Class Assignment": "not fulfilled"
  },
  {
    "Molecule": "CNC1CN(c2cc(NCc3cccc(OC)c3)nc(N)n2)C1",
    "Class Assignment": "fulfilled"
  },
  {
    "Molecule": "CNc1nc(NCCC(C)(C)C)cc(N2CCN(C)CC2)n1",
    "Class Assignment": "not fulfilled"
  }
]

input: Say whether its Ki is strictly beneath 100 nM. Entry: CNC1CN(c2cc(NCC(C)(C)C)ncn2)C1
output: fulfilled

input: Here's an entry: CC(C)(C)CCNc1cc(N2CC[C@H](N3CCCC3)C2)nc(N)n1 . Is its Ki below 100 nM?
output: not fulfilled

input: hey, is Ki for CNC1CN(c2cc(N3CCCCC3)ncn2)C1 lower than 100 nM or not?
output: not fulfilled

input: Hello, is Ki of the following molecule strictly smaller than 100 nM? CNC1CN(c2cc(NCCC(C)(C)C)ncn2)C1
output: fulfilled

input: Take the molecule CN[C@@H]1CCN(c2cc(NCC(C)C)ncn2)C1 and say whether its Ki is less than 100 nM.
output: fulfilled

input: Decide: Ki of CNc1cc(N2CC(NC)C2)nc(N)n1 strictly below 100 nM?
output: fulfilled

input: Decide: Ki of CNC1CN(c2cc(NCC3CC3)ncn2)C1 strictly below 100 nM?
output: fulfilled

input: Does the reported Ki of CN1C[C@@H]2CN(c3cc(NC4CC4)nc(N)n3)C[C@@H]2C1 stay below 100 nM?
output: not fulfilled
